Tested on: Staphylococcus epidermidis
Test: In vitro antibacterial activity against Staphylococcus epidermidis 3519
Assay type: functional
MEASURED ENDPOINT: MIC

The examples below pair each entry with its known result.
| COMPOUND | MEASUREMENT |
| --- | --- |
| CCn1cc(C(=O)O)c(=O)c2cc(F)c(-c3ccc(C)o3)cc21 | 1.56 µg/mL |
| CCn1cc(C(=O)O)c(=O)c2cc(F)c(C3=NC(C)(C)CO3)cc21 | 50 µg/mL |
| CCn1cc(C(=O)O)c(=O)c2cc(F)c(-c3c[nH]cn3)cc21.Cl | 50 µg/mL |
| O=C(O)c1cn(C2CC2)c2cc(N3CCNCC3)c(F)cc2c1=O [CIPROFLOXACIN] | 0.39 µg/mL |

Next compound, MIC to be filled in.
Lookup: Input CCn1cc(C(=O)O)c(=O)c2cc(F)c(C3=NCCCO3)cc21 , output reported MIC.
Found: > 100 µg/mL

Entry source: ChEMBL document CHEMBL1125111
